target.or.test.system: human L1 expressed on transfected 3T3 cells (human, UniProt P32004 20-1257)
Sequence (P32004 20-1257): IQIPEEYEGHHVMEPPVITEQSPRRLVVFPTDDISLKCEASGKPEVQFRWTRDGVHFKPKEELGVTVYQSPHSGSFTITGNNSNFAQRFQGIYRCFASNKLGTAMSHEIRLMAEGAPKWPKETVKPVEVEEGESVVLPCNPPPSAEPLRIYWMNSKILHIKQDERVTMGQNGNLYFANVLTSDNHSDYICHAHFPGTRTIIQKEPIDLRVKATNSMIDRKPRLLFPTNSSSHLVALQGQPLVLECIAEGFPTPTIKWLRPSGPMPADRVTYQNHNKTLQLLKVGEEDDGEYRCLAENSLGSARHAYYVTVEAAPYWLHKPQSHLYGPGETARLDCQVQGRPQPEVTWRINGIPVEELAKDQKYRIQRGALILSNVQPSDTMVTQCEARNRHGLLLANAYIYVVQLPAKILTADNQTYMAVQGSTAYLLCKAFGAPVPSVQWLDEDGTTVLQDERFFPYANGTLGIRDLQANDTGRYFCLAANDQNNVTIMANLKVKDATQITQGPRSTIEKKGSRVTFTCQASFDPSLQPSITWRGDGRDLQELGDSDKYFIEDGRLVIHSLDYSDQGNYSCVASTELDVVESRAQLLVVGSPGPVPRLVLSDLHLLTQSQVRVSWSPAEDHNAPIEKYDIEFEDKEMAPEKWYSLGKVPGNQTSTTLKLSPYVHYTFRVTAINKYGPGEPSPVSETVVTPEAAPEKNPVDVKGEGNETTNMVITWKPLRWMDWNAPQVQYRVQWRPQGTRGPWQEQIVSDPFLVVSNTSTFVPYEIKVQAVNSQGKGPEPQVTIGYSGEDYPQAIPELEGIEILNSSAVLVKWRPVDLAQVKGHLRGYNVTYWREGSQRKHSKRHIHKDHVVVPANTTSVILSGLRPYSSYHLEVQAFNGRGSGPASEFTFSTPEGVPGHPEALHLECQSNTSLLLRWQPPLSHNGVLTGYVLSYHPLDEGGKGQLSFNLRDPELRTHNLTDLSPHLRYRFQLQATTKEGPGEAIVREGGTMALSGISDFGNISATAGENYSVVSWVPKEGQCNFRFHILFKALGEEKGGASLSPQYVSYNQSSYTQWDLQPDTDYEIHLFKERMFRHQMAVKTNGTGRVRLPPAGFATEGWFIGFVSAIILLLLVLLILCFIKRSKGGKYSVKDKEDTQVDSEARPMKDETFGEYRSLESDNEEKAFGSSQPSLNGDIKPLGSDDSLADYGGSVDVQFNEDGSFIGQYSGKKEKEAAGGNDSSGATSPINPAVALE
protocol.details: cell-based or functional assay
Positions of bridges follow the written chain, without caps; N, C: chain ends.
property.label: % Inhibition of L1 Response (peptide 125 µg/ml) (%)

[[record]]
binder = "Ac-CHAVDINC-NH2 (disulfide 1-8 (inferred)) [N-Ac-CHAVDINC-NH2]"
unit_text = "%"
reported_result = 1.7

[[record]]
binder = "Ac-CHAVC-NH2 (disulfide 1-5 (inferred)) [N-Ac-CHAVC-NH2]"
unit_text = "%"
reported_result = 41.6

[[record]]
binder = "Ac-CHAVDC-NH2 (disulfide 1-6 (inferred)) [N-Ac-CHAVDC-NH2]"
unit_text = "%"
reported_result = 9.6

[[record]]
binder = "Ac-CHAVDIC-NH2 (disulfide 1-7 (inferred)) [N-Ac-CHAVDIC-NH2]"
unit_text = "%"
reported_result = 6

